# Test system: MS2 coat protein
# test_method_notes: apparent KD of MS2 coat protein; higher = weaker reporter binding
# condition_summary: Eterna round: R107; input ligand: theophylline 20 uM
This listing pairs sequences with measured apparent KD of MS2 coat protein.
property_label: apparent KD of MS2 coat protein (nM)

{"columns": ["sequence", "endpoint_value"],
 "data": [
  ["CUAGGAAACUAGUAAGGGUGGUAUUGAGAUACCAGUACAGAAAUGUACCCUUGGCAGCUCACUGCAACAUGAGGAUCACCCAUGU [Ex Theophylline A 12]", 29.3],
  ["CCUCAUGAACAUGAGGAUCACCCAUGUACACGAGGACCGGUACGGCCGCCACUCGAAUAACCUUAAUAUAAAUAAUAAUAAAAGG [5' end split MS2]", 21.5],
  ["GCCAAAAUACCCGAUACCAGUAUUAAUAGCACAACCUCACACAUGAGGAUCACCCAUGUAUACCCUUGGCAGCGGCCUAACAUAA [theeternabot_exclusion_MS2_Theo_B_49]", 55.3],
  ["GAUGAACUAUUUGAUACCAGACUACAUGAGGAUCACCCAUGUGAGUUUCCUCCUCUGCCAGUCCCUUGGCAGCAAAUAGUUUAUC [XTheo B #7]", 96.9],
  ["AAAUAAAUACAUGAGGAUCACCCAUGUGAAGGAGCGCCCGUUAGGGCAGGUAGGUCGCACAUGAACUCCAAAGUGCAAAAGCACA [ArgEX 17 #OpenEnded]", 29.7],
  ["CCUCAAUAGACGGCCGCCACUGAAACAUGAGGAUACAUGAGGAUCACCCAUGUGGGUGUGUUACGCAGGACCGGGUCAAGACCCG [Tryp B SS t1]", 435]
]}

---

# Tested on: MS2 coat protein
# test_method_notes: apparent KD of MS2 coat protein; designed switch direction (-1 OFF switch, 1 ON switch): -1; higher = weaker reporter binding
# condition_summary: input ligand: none

{"columns": ["sequence", "system", "apparent KD of MS2 coat protein / nM"],
 "data": [
  ["GUCACAUGGACAUAGGAUCACAUGAGGAUCACCCAUGUGACUAACAAGCUUUUUGCUCGUCUUAUGUCCAUGUGAAU [Stov1/15-A3] (Eterna round: R97, puzzle: Sensor, turn-off variant 1)", "MS2 coat protein", 12.9],
  ["ACAUGUAAUGCAGGAUAUCGGACACAUGAGGAUCACCCAUGUGACCUGAGGUAUUGCUAAGAGUCUGAGAAGGGUAUGUACAUG [Ex NG2 #51] (Eterna round: R96, puzzle: Exclusion NG 2)", "MS2 coat protein", 20.4],
  ["GAGAGGAGUGUAGGAUAUUUAAGGGAGGAGGAGGGAGAAGGACAUGAGGAUCACCCAUGUAGGAAGAGAGGAGGAGUACAGGAG [Default title] (Eterna round: R96, puzzle: Exclusion NG 1)", "MS2 coat protein", 32.3],
  ["GGCAUGUAAGGAUAUGCCACGCAGUCCUUUGGGCUGCGUAAGCAGAAGGUACAUGAGGAUCACCCAUGUGAUAA [jl-ex4-4.56 ViennaUCT mod] (Eterna round: R97, puzzle: Exclusion 4)", "MS2 coat protein", 591],
  ["AAGAGCAUCGGAGGAUAUGGAGCUGAAACGGCGCUAGAAGGCCGUGCAGUGUAACAUGAGGAUCACCCAUGUAGGGACCUCUAA [EX ng 1 4] (Eterna round: R96, puzzle: Exclusion NG 1)", "MS2 coat protein", 104],
  ["AGAGUGCUGCGAGGAUAUACAUGAGGAUCACCCAUGUGGUCCUGUGAGGCAAAGCCUCACAGGAUGUAGAAGGCGCAGUACUCA [Mat - Exclusion NG 2 - Mod of JL - D46] (Eterna round: R96, puzzle: Exclusion NG 2)", "MS2 coat protein", 19.9],
  ["UCUAUUUUGCGAGGAUAUCGACCAUUCCUCUUUACAUGAGGAUCACCCAUGUUCUUUUUCUACAACGAGAAGGCGCUCUAAGUU [JR_ExcNG2_Sub061] (Eterna round: R96, puzzle: Exclusion NG 2)", "MS2 coat protein", 59.1],
  ["ACCUCUGAGGAGGAUAUACAGUGCGAAAGGACAGUAGAAGGCUUCACAUGAGGAUCACCCAUGUCGAAAAGUGA [EX6 #80] (Eterna round: R97, puzzle: Exclusion 6)", "MS2 coat protein", 92.6],
  ["CGGCGACAUGAGGAUCACCCAUGUGAGGAUAUGACGGGAAAAGCGUGAGCAGUUUGUGGCAGAAGGCGCGUAGG [salish99_ex1_r4_083] (Eterna round: R97, puzzle: Exclusion 1)", "MS2 coat protein", 117]
]}

---

# Tested on: K4 kissing-loop RNA reporter;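 further: bound reporter read as fluorescence of individual clusters on recovered sequencing chips by microscopy, with normalized cluster intensities fitted with a binding model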
# test_method_notes: apparent KD of K4 kissing-loop reporter; higher = weaker reporter binding
# condition_summary: Eterna round: R107; input ligand: none
This listing pairs sequences with measured apparent KD of K4 kissing-loop reporter.

{"columns": ["sequence", "apparent KD of K4 kissing-loop reporter"],
 "data": [
  ["GCGCGUCAUGUUGGCGGGAACUAAGCCGAUACCAGCCGGGAAACCGGCCCUUGGCAGCGGCGCGCCGGAGUGAUGUUCCGACAGA [#2 Exclusion - Theophylline A Attempt #1 (HarryS)]", "254 nM"],
  ["AGACUACCACACUGUCAAUAGACAGUGUACUAGGAUAUGCUGAUAAGCAGAAGGAGUGAUGUUCCCAGGUAGUCAAUAAAAUAAU [FmnAX 13 U28+C66]", "243 nM"],
  ["AUAUUUAUUUAGUCACUUUUCAUAUUAUGUCAGGAUAUCGUAUUUUCGAGAAGGGACUCAUGCUAGUGAUGUUAGCUAUUUCUCA [JR_Nu3_ExcFMNA_Sub022]", "141 nM"],
  ["AUACGUUUUUGUGAUACCAGACAUGUGAGUGAUGUUUACAUAUAUAUUUAAUAUUUAGCUGUCCCUUGGCAGCACUGUUUAUUUA [JR_ExcTheophyB_Sub004]", "420 nM"],
  ["GGAUAGGACAGAGGAUAUCUCUGAGGCAAGAAAACUUGUCUCUAAGGAGAUGACUCAGUGAUGUUGAGAGAAGGCUGUCCUAUCG [FmnBX 12 - #SwitchBubble #StaticStem]", "155 nM"],
  ["GUGGGCAUAGCAGGAUAUCCAUAUUAACAGGAGUCCUCGCCAGUGAUGUUGGAAAGGUACCGGAGUGGAGAAGGGCUCCUACGUA [Anbiratien]", "813 nM"],
  ["GAAGGAGACAACAUCACUACUCCUUCAGACUAGGAUAUCAGGAAACUGAGAAGGAGUCUACUUGCAGUGAUGUUGCAAGAAUAAU [[F]''-[K]'-[F]'-[F1]-[F2]-[K1]-[K2]_Design2]", "146 nM"],
  ["GUACCUUGGAAACAAGGACAGCUCACCGAAGGAGCGCGUGAAAACGCAGGUAGGUCGCGGUAGCGGAGUGAUGUUCCGCGAGGGC [Same State Arginine A GF 20]", "100 nM"],
  ["UAUCUUUGCUGAAGGAGCGAGCAUGUUGGAGUGAUGUUCCGUGCGAGUGAUGUUCGCAUAGCUCAGGUAGGUCGCAGUGGGAGGA [KL-SSArg B29]", "105 nM"],
  ["CGUGCCCGGCCGGAUACCAGUGACCCGCUGGGAACCGCGGGCCCAGAGUGAUGUUCGGGACACCCUUGGCAGCCGCCUGGGCUGC [#2 Same State - Theophylline B Attempt #14 (HarryS)]", "757 nM"],
  ["UCGGACCCUGGAGGAUAUGAGUCGAGUGAUGUUCGGCGGUCCAUGCCGGUGCGGCGUUAUGCCCUUUUAGAAGGCCAGGGUCCGA [#2 Exclusion - FMN B Attempt #11 (HarryS)]", "196 nM"],
  ["AUGCGCGCGGCGGCCGCCACUCGCAUGAGAGUGAUGUUCUCGCCGUGCCCGUAAGGGCGCGGUGUGAGGACCGGGCCGGGCUGCG [#2 Same State - Tryptophan B Attempt #21 (HarryS)]", "400 nM"],
  ["UGGGUGUAGUGAUGUUAUAUAGAGAGUGAUACCAGUUUAGAGAAGAACCCUUGGCAGCAUAGAAGAGUAUCAUUGGAGGAGGAGG [ExTheophyl.Av]", "336 nM"],
  ["UCCUAGGUCUUCAGGCGAAAGCCCUGCGAAGGAGCGUGCGAAAGCACAGGUAGGUCGCGCAGUGAUGUUGCACCUAGGUAAUAAA [#SwitchBubble 21 #K4Late]", "268 nM"],
  ["AUUUUUUACAGAAGGAGCGUGUUUUUAUAAUCAUUUAUCUUAGCGAGUGAUGUUCGCUUUACACAGGUAGGUCGCUGUUUAUUUA [JR_Nu_ExcArginiB_Sub028]", "121 nM"],
  ["CAACUACCCGGAAGGAGCGCGGGUGUAAAUCAAAGGGCUUGAGUGAUGUUCAAGCGGAACCCGCAGGUAGGUCGCCGGGAAGCCC [Quaneson]", "119 nM"],
  ["AAUUUAUUAACUGAUACCAGACUUUAGCGCGUUUAUAAGUCAAGUGAUGUUUGACUAAUUGUCCCUUGGCAGCAGUAUUUAUUAA [JR_SSTheophyB_Sub021]", "216 nM"],
  ["ACGCUGGUGAAUAACACUAGCGAAUAAUUCCGAGGACCGGUACGGCCGCCACUCGGCUAACUGCGAGUGAUGUUCGAUAAUAAAA [Mat - Mod of OpenEnded 3 - D10]", "103 nM"],
  ["GUAUCGCUAGGAGGAUAUUUCAAUUUGACUCUUUGAGUUAAUACGGAGUGAUGUUCCGAUUUACGGAAAGAAGGCCUAGUGAUAC [FMN B 13]", "238 nM"],
  ["AGUGAUAUAUGAGGAUAUGGGUUAAUUAGUGAGUUAUUUUUAGUGUUGUUUGAUUAGUGAUGUUAUUUAGAAGGCGUGAGUGAUG [awwswmjmullin]", "67.5 nM"],
  ["UGUACCGAGUCAGGAUAUGGCGUCGAAAGACGAAACCAGUGAUGUUGGAAAAUCUGCGAAAGCAGUCCAGAAGGGACUUGGUACU [FmnBS 24 #SwitchBubble #StaticStem #DoubleMagnetSystem]", "302 nM"],
  ["AGCGAUGUUUUCUCUAAGAGUGAUGUUUUUCGAGGACCGGUACGGCCGCCACUCGAAUAAAGUGUGUGGUAGUGAGCUGUUGACA [#17 K4 Tryptophan A Exclusion]", "1110 nM"]
]}

This collection of values is drawn from the supplement of paper PMC9170038.
